tested on: Reversed Passive Arthus Reaction (RPAR) in the pleural cavity; assay: Reversed Passive Arthus Reaction (RPAR) in the pleural cavity: cells and fluid; type: in vivo, male rats; details: Rattus norvegicus, 4 h; dose 25 mpk; read-out: RPAR-Pleural Cavity % Inhibition cells
inhibition in vivo at 25 mg/kg below 50% gives no; inhibition in vivo at 25 mg/kg at or above it gives yes.

Observe how each entry below is paired with its result.
>  <Mol>
CN1C(=O)C(C)(C)c2cccnc21

>  <Test Target>
Reversed Passive Arthus Reaction (RPAR) in the pleural cavity

>  <Class Label>
yes

$$$$
>  <Mol>
CC1(C)C(=O)N(c2ccc(Cl)c(Cl)c2)c2ncccc21

>  <Test Target>
Reversed Passive Arthus Reaction (RPAR) in the pleural cavity

>  <Class Label>
no

$$$$

Turning to the following compound.
Record COc1ccc(N2C(=O)C(C)(C)c3cccnc32)cc1 ; criterion: inhibition in vivo at 25 mg/kg no lower than 50%. Met? yes

---

biological target: cyclooxygenase (Homo sapiens); construct: Cyclooxygenase Assay with Human Platelets; endogenous in cells; host or cells: human blood platelets from healthy volunteers; experiment: Cyclooxygenase Assay with Human Platelets, HHT production; type: cell-based; conditions: 50 μM; read-out: PMN Assay % Inhibition HHT
Sequence (P23219 24-599): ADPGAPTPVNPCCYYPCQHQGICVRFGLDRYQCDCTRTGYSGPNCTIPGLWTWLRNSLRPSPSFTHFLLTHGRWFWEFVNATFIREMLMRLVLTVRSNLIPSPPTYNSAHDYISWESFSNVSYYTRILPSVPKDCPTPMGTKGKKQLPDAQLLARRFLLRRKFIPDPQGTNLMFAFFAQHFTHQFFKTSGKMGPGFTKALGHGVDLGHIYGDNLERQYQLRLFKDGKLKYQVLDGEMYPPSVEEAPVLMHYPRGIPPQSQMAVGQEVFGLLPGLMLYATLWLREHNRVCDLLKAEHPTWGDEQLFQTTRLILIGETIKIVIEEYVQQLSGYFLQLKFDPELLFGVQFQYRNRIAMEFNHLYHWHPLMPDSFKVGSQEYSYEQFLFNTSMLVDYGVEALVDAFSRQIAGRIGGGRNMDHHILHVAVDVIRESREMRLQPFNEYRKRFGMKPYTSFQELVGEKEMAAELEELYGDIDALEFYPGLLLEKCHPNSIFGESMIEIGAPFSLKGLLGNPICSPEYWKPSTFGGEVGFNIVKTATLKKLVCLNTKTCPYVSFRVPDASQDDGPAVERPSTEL
% inhibition of HHT production in human platelets at 50 µM below 40% gives condition not met; % inhibition of HHT production in human platelets at 50 µM at or above it gives condition met.

Observe how each entry below is paired with its result.
>  <Compound>
Cc1c(Cl)cccc1N1C(=O)C(Sc2ccccc2)c2cccnc21 (centres unmarked)

>  <Test Target>
cyclooxygenase (Homo sapiens)

>  <Class Label>
condition met

$$$$
>  <Compound>
CC1(Sc2ccccc2)C(=O)N(c2ccccc2)c2ncccc21 (centres unmarked)

>  <Test Target>
cyclooxygenase (Homo sapiens)

>  <Class Label>
condition not met

$$$$
>  <Compound>
O=C1C(Sc2ccc(Cl)cc2)c2cccnc2N1c1ccccc1 (centres unmarked)

>  <Test Target>
cyclooxygenase (Homo sapiens)

>  <Class Label>
condition met

$$$$
>  <Compound>
O=C1C(Sc2ccccc2Cl)c2cccnc2N1c1ccccc1 (centres unmarked)

>  <Test Target>
cyclooxygenase (Homo sapiens)

>  <Class Label>
condition met

$$$$

Record CC(C)N1C(=O)C(Sc2ccccc2)c2cccnc21 (centres unmarked) ; criterion: % inhibition of HHT production in human platelets at 50 µM no lower than 40%. Met? condition not met

Record CN1C(=O)C(Sc2ccccc2)c2cccnc21 (centres unmarked) ; criterion: % inhibition of HHT production in human platelets at 50 µM no lower than 40%. Met? condition not met

Record O=C1C([S+]([O-])c2ccccc2)c2cccnc2N1c1cccc(C(F)(F)F)c1 (centres unmarked) ; criterion: % inhibition of HHT production in human platelets at 50 µM no lower than 40%. Met? condition met

Record COc1ccccc1SC1C(=O)N(c2ccccc2)c2ncccc21 (centres unmarked) ; criterion: % inhibition of HHT production in human platelets at 50 µM no lower than 40%. Met? condition not met

---

Biological target: 5-lipoxygenase (Homo sapiens, UniProt P09917)
Construct: Human polymorphonuclear (PMN) leukocytes (neutrophils) are obtained from normal healthy volunteers; endogenous in cells; host or cells: human polymorphonuclear leukocytes (neutrophils) from blood of healthy volunteers
Sequence (P09917 whole entry): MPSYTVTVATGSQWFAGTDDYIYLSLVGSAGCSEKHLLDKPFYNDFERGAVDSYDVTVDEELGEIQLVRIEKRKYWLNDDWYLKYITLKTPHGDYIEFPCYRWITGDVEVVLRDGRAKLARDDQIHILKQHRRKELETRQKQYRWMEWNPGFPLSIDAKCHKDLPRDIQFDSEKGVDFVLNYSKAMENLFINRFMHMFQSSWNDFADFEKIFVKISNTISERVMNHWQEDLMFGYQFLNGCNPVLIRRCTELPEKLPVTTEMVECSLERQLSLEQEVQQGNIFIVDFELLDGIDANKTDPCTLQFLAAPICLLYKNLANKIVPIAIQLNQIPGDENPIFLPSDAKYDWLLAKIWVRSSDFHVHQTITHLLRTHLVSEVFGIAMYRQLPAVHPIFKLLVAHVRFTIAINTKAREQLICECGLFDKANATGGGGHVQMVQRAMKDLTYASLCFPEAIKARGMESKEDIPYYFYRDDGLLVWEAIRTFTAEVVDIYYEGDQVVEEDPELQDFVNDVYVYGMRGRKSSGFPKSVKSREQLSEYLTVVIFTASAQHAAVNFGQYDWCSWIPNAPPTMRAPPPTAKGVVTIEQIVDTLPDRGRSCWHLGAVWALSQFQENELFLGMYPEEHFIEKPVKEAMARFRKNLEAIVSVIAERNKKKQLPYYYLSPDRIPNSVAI
Assay: 5-Lipoxygenase Assay in human polymorphonuclear (PMN) leukocytes, 5-HETE production
Assay type: cell-based
Details: 15 μM
Procedure: Human polymorphonuclear (PMN) leukocytes (neutrophils) are obtained from normal healthy volunteers by venipuncture and collected with heparin anticoagulant. Neutrophils are isolated by Dextran/Ficol sedimentation as described (Billah et al, J. Biol. Chem. 260, 6899-6906 (1985)). In brief, 30 ml of blood is mixed with 5 ml of dextran (Sigma) solution and kept at 37° C. for 30 min. […]
Response field class: enum, chosen by comparing inhibition at 15 µM against Low (below 20%), Mid (20% to below 80%), High (80% or more)

>  <Compound>
O=C1N(Cc2ccccc2)c2ncccc2C1(Sc1ccccc1)Sc1ccccc1 [Compound 26]

>  <Test Target>
5-lipoxygenase (Homo sapiens, UniProt P09917)

>  <Class Label>
High

$$$$

Kindly identify the class of O=C1C(SCCO)c2cccnc2N1c1ccccc1 (centres unmarked) [Compound 25] . Low

Kindly identify the class of O=C1C(Sc2ccccc2)c2cccnc2N1c1ccc(Cl)c(Cl)c1 (centres unmarked) [Compound 34] . High

Kindly identify the class of CN1C(=O)C([S+]([O-])c2ccccc2)c2cccnc21 (centres unmarked) [Compound 24] . Mid

Kindly identify the class of COc1ccc(SC2C(=O)N(c3ccccc3)c3ncccc32)cc1 (centres unmarked) [Compound 21] . Mid

Kindly identify the class of O=C1C(Sc2ccccc2)c2cccnc2N1c1ccccc1 (centres unmarked) [Compound 11] . Mid

Kindly identify the class of O=C1C(Sc2ccccc2)c2cccnc2N1c1cccc(Cl)c1 (centres unmarked) [Compound 33] . High

Kindly identify the class of CSC1(C)C(=O)N(c2ccccc2)c2ncccc21 (centres unmarked) [Compound 32] . Mid

Kindly identify the class of O=C1C(Sc2ccccc2)c2cccnc2N1Cc1ccccc1 (centres unmarked) [Compound 27] . Low

Kindly identify the class of CC(=O)C1(SCCO)C(=O)N(c2ccccc2)c2ncccc21 (centres unmarked) [Compound 29] . Mid

Kindly identify the class of CC(=O)OCCSC1C(=O)N(c2ccccc2)c2ncccc21 (centres unmarked) [Compound 30] . Mid

Kindly identify the class of CN1C(=O)C(S(=O)(=O)c2ccccc2)c2cccnc21 (centres unmarked) [Compound 31] . Low

---

target: 5-lipoxygenase (Homo sapiens); construct: Human polymorphonuclear (PMN) leukocytes (neutrophils) are obtained from normal healthy volunteers; endogenous in cells; host or cells: human polymorphonuclear leukocytes (neutrophils) from blood of healthy volunteers; experiment: 5-Lipoxygenase Assay in human polymorphonuclear (PMN) leukocytes, 5-HETE production; assay type: cell-based; details: 50 μM
Result Type: inhibition at 50 µM (%)
// units = %; emit number, no label

>  <Compound>
O=C1C(Sc2ccc(Cl)cc2)c2cccnc2N1c1ccccc1 (stereo not drawn)

>  <Test Target>
5-lipoxygenase (Homo sapiens)

>  <Reported Measurement>
91

$$$$
>  <Compound>
Cc1c(Cl)cccc1N1C(=O)C(Sc2ccccc2)c2cccnc21 (stereo not drawn)

>  <Test Target>
5-lipoxygenase (Homo sapiens)

>  <Reported Measurement>
86

$$$$

Now, please, on to the next compound.
What inhibition at 50 µM value was documented for this compound, O=C1C([S+]([O-])c2ccccc2)c2cccnc2N1c1cccc(C(F)(F)F)c1 (stereo not drawn) ? 82
